Target: human emopamil binding protein and human 7-dehydrocholesterol reductase (hEBP-DHCR7) (Homo sapiens (Human))
Sequence (Q15125 whole entry): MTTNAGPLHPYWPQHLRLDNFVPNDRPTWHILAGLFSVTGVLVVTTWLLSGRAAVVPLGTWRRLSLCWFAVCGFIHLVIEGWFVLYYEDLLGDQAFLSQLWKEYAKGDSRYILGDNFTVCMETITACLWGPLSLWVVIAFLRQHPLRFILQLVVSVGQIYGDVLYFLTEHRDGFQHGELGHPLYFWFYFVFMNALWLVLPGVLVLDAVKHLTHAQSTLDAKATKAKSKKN
Response field label takes met when Ki is strictly below 100 nM and not met in all other cases.

Q: Find out if reported Ki for CC(C)n1nc(-c2ccccc2F)cc1[C@H]1[C@@H]2C[C@H](N3CCCOCC3)C[C@@H]21 [Compound 193*] is less than 100 nM
Result: met

Q: Hello, is Ki of the following compound strictly smaller than 100 nM? Cc1ccccc1-c1cc([C@H]2[C@@H]3C[C@@H](N4CCCOCC4)C[C@@H]32)n(C(C)C)n1 (single isomer, unassigned) [Compound 198*]
Result: met

Q: Does the reported Ki of CC[C@H]1CN([C@H]2CC[C@@H](c3nc(-c4cnc(C(F)(F)F)nc4)nn3C(C)C)C2)CCO1 [Compound 154] stay below 100 nM?
Result: not met

Q: Consider CC(C)n1nc(-c2cncc(C(F)(F)F)c2)cc1[C@H]1[C@@H]2C[C@@H](N3CCO[C@H](C)C3)C[C@@H]21 (single isomer, unassigned) [40*] . Does its Ki lie strictly below 100 nM?
Result: not met

Q: Bench note: check whether CC(C)n1nc(-c2cncc(C(F)(F)F)c2)cc1[C@H]1[C@@H]2C[C@@H](N3CCO[C@@H](C)C3)C[C@@H]21 (single isomer, unassigned) [39*] shows Ki below 100 nM
Result: not met

Q: Input CC[C@@H]1CN([C@@H]2CC[C@H](c3nc(-c4ccc(C(F)F)nc4)nn3C(C)C)C2)CCO1 [Compound 156] ; condition: Ki strictly below 100 nM. Does it hold?
Result: met

###

Can you tell me pEC50 for the items I'm about to list?
System: zymostenol accumulation (EBP) in EpiSC-derived OPCs
Test: GC/MS-based sterol profiling, zymostenol accumulation in EpiSC-derived OPCs
Assay type: cell-based, mouse
Settings: Mus musculus, 24 h, EpiSC-derived OPCs, 24 hr, 8 doses from 0.15 nM to 333 nM; read-out: Mouse Zymostenol GCMS EC50
Remember the convention: pEC50 equals -log10 of concentration in molar.

Value of measured pEC50 for the entry CC(C)n1nc(-c2cccc(C(F)(F)F)n2)nc1[C@@H]1CCC(N2CCOCC2)C1 (stereo in doubt) [25*] : 6.63

Lookup result for CC(C)n1nc(-c2cncc(C(F)(F)F)c2)nc1[C@H]1[C@@H]2C[C@H](N3CCOC[C@@H]3C)C[C@@H]21 ; measured pEC50: 8.11

Form field pEC50, entry CC(C)n1nc(-c2cccc(C(F)(F)F)c2)nc1[C@H]1[C@@H]2C[C@H](N3CCOCC3)C[C@@H]21 : 8.10

So for COCCN1CCN([C@H]2CC[C@@H](c3cc(-c4ccc(C(F)(F)F)nc4)nn3C(C)C)C2)CC1 (single isomer, unassigned) , the logged pEC50 turned out to be 7.95

###

Tested on: zymostenol accumulation (EBP) in EpiSC-derived OPCs
Test: GC/MS-based sterol profiling, zymostenol accumulation in EpiSC-derived OPCs
Assay type: cell-based, mouse
Conditions: Mus musculus, 24 h, EpiSC-derived OPCs, 24 hr, 8 doses from 0.15 nM to 333 nM; read-out: Mouse Zymostenol GCMS EC50
READOUT LABEL: log10(EC50) (log10 of the value in nM)
Could you please treat all values as log10 of EC50 in nM?

GET /values?item= FC(F)(F)c1cccc(-c2nc([C@@H]3CC[C@@H](N4CCCOCC4)C3)n(C3CC3)n2)n1 (single isomer, unassigned) [11*] &system= zymostenol accumulation (EBP) in EpiSC-derived OPCs returns log10(EC50): 1.29

Hey, zymostenol accumulation (EBP) in EpiSC-derived OPCs data for CC(C)n1nc(-c2ccc(C(F)(F)F)nc2)nc1[C@H]1CC[C@@H](N2CCO[C@H](CF)C2)C1 (single isomer, unassigned) [Compound 169] : log10(EC50) came out at 0.88

Entry CC(C)n1nc(-c2cccc(C(F)(F)F)n2)nc1[C@@H]1CCC(N2CCOCC2)C1 (stereo in doubt) [26*] , tested on zymostenol accumulation (EBP) in EpiSC-derived OPCs, has a reported log10(EC50) of 1.07

Recorded log10(EC50) for CC(C)n1nc(-c2cccc(OC(F)(F)F)c2)cc1[C@H]1[C@@H]2C[C@H](N3CCCOCC3)C[C@@H]21 [Compound 189*] on zymostenol accumulation (EBP) in EpiSC-derived OPCs was 0.54

With zymostenol accumulation (EBP) in EpiSC-derived OPCs as the test system, CC(C)n1nc(-c2cncc(C(F)(F)F)c2)cc1[C@H]1[C@@H]2CC(N3CCOC[C@H]3C)C[C@@H]21 (single isomer, unassigned) [44*] showed log10(EC50) of 1.79

With zymostenol accumulation (EBP) in EpiSC-derived OPCs as the test system, CC[C@H]1CN([C@@H]2CC[C@H](c3nc(-c4cncc(F)c4)nn3C(C)C)C2)CCO1 [Compound 123] showed log10(EC50) of 1.03

Kindly note: zymostenol accumulation (EBP) in EpiSC-derived OPCs, CC(C)n1nc(-c2cccc(C(F)(F)F)n2)nc1[C@H]1CC[C@@H](N2CCOC[C@@H]2C)CC1 (single isomer, unassigned) [79*] , log10(EC50) value reported: 1.36

For CC[C@H]1CN([C@@H]2CC[C@H](c3nc(-c4cnc(C(F)(F)F)c(F)c4)nn3C(C)C)C2)CCO1 [Compound 147] on zymostenol accumulation (EBP) in EpiSC-derived OPCs, measured log10(EC50) was 1.16

Summary line: CC(C)n1nc(-c2cncc(C(F)(F)F)c2)nc1[C@H]1[C@@H]2C[C@@H](N3CCO[C@H](C)C3)C[C@@H]21 [Compound 162] , zymostenol accumulation (EBP) in EpiSC-derived OPCs, reported log10(EC50) = 2.57

The molecule CC(C)n1nc(-c2cccc(C(F)(F)F)n2)cc1[C@H]1[C@@H]2C[C@H](N3CCCOCC3)C[C@@H]21 [Compound 50] on zymostenol accumulation (EBP) in EpiSC-derived OPCs: log10(EC50) was 0.21

CC(C)n1nc(-c2cccc(C(F)(F)F)c2)nc1[C@H]1[C@@H]2C[C@H](N3CCCOCC3)C[C@@H]21 [Compound 13] tested on zymostenol accumulation (EBP) in EpiSC-derived OPCs gave log10(EC50): 0.17

The reported zymostenol accumulation (EBP) in EpiSC-derived OPCs log10(EC50) of CC(C)n1nc(-c2ccc(C(F)(F)F)nc2)cc1[C@H]1[C@@H]2C[C@@H](N3CCCOCC3)C[C@@H]21 [Compound 47] is 1.66

Bench note, zymostenol accumulation (EBP) in EpiSC-derived OPCs: CC[C@H]1CN([C@@H]2CC[C@H](c3nc(-c4ccc(C(F)(F)F)nc4)nn3C(C)C)C2)CCO1 [Compound 128] , log10(EC50) reads 1.22

Here CC(C)n1nc(-c2cnc(C(F)(F)F)nc2)nc1[C@H]1CC[C@H](N2CCO[C@H](C)C2)C1 [Compound 145] was tested on zymostenol accumulation (EBP) in EpiSC-derived OPCs, and its log10(EC50) came to 1.92

Record CC(C)n1nc(-c2ccc(C(F)(F)F)nc2)nc1[C@H]1CC[C@H](N2CCO[C@H](CF)C2)C1 (single isomer, unassigned) [Compound 168] / zymostenol accumulation (EBP) in EpiSC-derived OPCs, log10(EC50) recorded as 2.36

Tested on zymostenol accumulation (EBP) in EpiSC-derived OPCs: CC(C)n1nc(-c2cccc(C(F)(F)F)c2)cc1[C@H]1[C@@H]2C[C@H](N3CCCOCC3)C[C@@H]21 [Compound 176*] . Observed log10(EC50): 0.23

Value sought: log10(EC50), system zymostenol accumulation (EBP) in EpiSC-derived OPCs, item CC(C)n1nc(-c2ccc(C(F)(F)F)nc2)nc1[C@@H]1CC[C@@H](N2CCCOCC2)C1 [Compound 3] . Result: 1.60

Entry CCn1nc(-c2cncc(C(F)(F)F)c2)cc1[C@H]1[C@@H]2C[C@@H](N3CCCOCC3)C[C@@H]21 [Compound 53] , zymostenol accumulation (EBP) in EpiSC-derived OPCs data, log10(EC50) value: 1.14

# log10(EC50) measured on zymostenol accumulation (EBP) in EpiSC-derived OPCs for item CC[C@H]1CN([C@@H]2CC[C@H](c3nc(-c4cnc(C(F)(F)F)nc4)nn3C(C)C)C2)CCO1 (single isomer, unassigned) [Compound 110*] = 0.39

Reported log10(EC50) (zymostenol accumulation (EBP) in EpiSC-derived OPCs) for entry CC(C)n1nc(-c2cccc(C(F)(F)F)n2)cc1[C@H]1[C@@H]2C[C@@H](N3CCCOCC3)C[C@@H]21 [Compound 49] is 1.62

Value (log10(EC50), zymostenol accumulation (EBP) in EpiSC-derived OPCs) for record CC(C)n1nc(-c2ccc(C(F)(F)F)c(F)c2)nc1[C@@H]1CC[C@@H](N2CCOCC2)C1 (single isomer, unassigned) [Compound 114*] = 0.90

Bench note, zymostenol accumulation (EBP) in EpiSC-derived OPCs: CC(C)n1nc(-c2cccc(C(F)(F)F)n2)nc1[C@H]1[C@@H]2C[C@@H](N3CCOC[C@H]3C)C[C@@H]21 [Compound 72] , log10(EC50) reads 2.52

Field log10(EC50) (zymostenol accumulation (EBP) in EpiSC-derived OPCs), entry CC(C)n1nc(-c2cncc(C(F)(F)F)c2)cc1[C@@H]1CC[C@H](N2CCCOCC2)C1 (single isomer, unassigned) [62*] : 0.24

log10(EC50) for zymostenol accumulation (EBP) in EpiSC-derived OPCs with input CC(C)n1nc(-c2cncc(C(F)(F)F)c2)cc1[C@H]1[C@@H]2C[C@@H](N3C[C@@H]4C[C@H]3CO4)C[C@@H]21 (single isomer, unassigned) [36*] equals 2.36

// assay zymostenol accumulation (EBP) in EpiSC-derived OPCs, entry CC(C)n1nc(-c2ccc(C(F)(F)F)nc2)nc1[C@@H]1CC[C@@H](N2CCOCC2)C1 [Compound 104] , log10(EC50) value = 1.72

The value of log10(EC50) recorded for CC(C)n1nc(-c2cncc(Cl)c2)cc1[C@H]1[C@@H]2C[C@H](N3CCCOCC3)C[C@@H]21 [Compound 178*] when tested on zymostenol accumulation (EBP) in EpiSC-derived OPCs reads 1.82
